Read-out: CD69, CD69 (gene 969)
protocol details: BSK_SAg_CD69: BioMAP Diversity Plus: SAg Assay for CD69 Biomarker Activity (AID 2283089)
condition: primary human HUVEC with PBMC; actives raise or lower the signal
Calls of active or inactive are those of the source. Rule for the calls: active = hit-call score of the fitted dose curve at least 0.9, where 1 is the maximum; inactive = score below 0.9.
Write down one outcome, taken from active, inactive

Worked examples follow.
CCc1c(C(=O)NN2CCCCC2)nn(-c2ccc(Cl)cc2Cl)c1-c1ccc(Br)cc1
active
Cc1ccc(C)c(O)c1C
inactive
CC1(C)CC(N=C=O)CC(C)(CN=C=O)C1 (configuration not stated)
inactive

Request: Call for entry O=C(OCCCCCOC(=O)c1ccccc1)c1ccccc1 :
Response: inactive

Request: Call for entry COc1ccc(C)cc1N :
Response: inactive

Request: Call for entry Cc1cccc(Nc2cc(Cl)nc(SCC(=O)O)n2)c1C :
Response: inactive

Request: Call for entry Oc1ccc2c(c1)OC[C@@H](N1CCC(O)(c3ccc(F)cc3)CC1)[C@H]2O :
Response: inactive

Request: Call for entry NC(=O)Cn1c(=O)cc(CCN2CCN(c3nccc4sccc34)CC2)c2ccc(F)cc21 :
Response: inactive

Request: Call for entry Cc1ccccc1Cl :
Response: inactive

Request: Call for entry NCCO :
Response: inactive

Request: Call for entry Nc1ccc(S(=O)(=O)c2ccc(N)cc2)cc1 :
Response: inactive

Request: Call for entry Cc1c(C(=O)O)c(O)cc2c1C(=O)c1c(O)c([C@@H]3O[C@H](CO)[C@@H](O)[C@H](O)[C@H]3O)c(O)c(O)c1C2=O :
Response: inactive

###

protocol details: BSK_CASM3C_SRB: Viability Assessment in the BioMAP Diversity Plus: CASM3C Assay (AID 2283050);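 note: total protein by SRB staining as cytotoxicity measure in parallel cultures; cells exposed to compound for 24 h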
condition: primary human coronary artery smooth muscle cells
Active and inactive are the calls of the source. Rule for the calls: active = hit-call score of the fitted dose curve at least 0.9, where 1 is the maximum; inactive = score below 0.9.
Write down one outcome, taken from Yes for active, No for inactive

Worked examples follow.
COCCOC[C@H](CC1(C(=O)NC2CCC(C(=O)O)CC2)CCCC1)C(=O)Oc1ccc2c(c1)CCC2 (stereo partly drawn)
No
CCCCCCCCCCO
No
CCCCCCCCCCC
No
COc1cc(-c2nc(NC(=O)c3cc4cc(C)cc(C)c4n3CC(=O)O)sc2CCC2CCCCC2)c(OC)cc1Cl
Yes
CCCCN(CCCC)CCCC
No
CNCc1cc(F)ccc1Oc1ccc(Cl)c(Cl)c1
No
CC(C)(C)c1cc(O)c(C(C)(C)C)cc1O
No

Request: Call for entry CN[C@H]1CC[C@@H](c2ccc(Cl)c(Cl)c2)c2ccc(S(N)(=O)=O)cc21 :
Response: Yes

###

Read-out: Macrophage colony-stimulating factor (MCSF), CSF1 (gene 1435)
protocol details: BSK_hDFCGF_MCSF: BioMAP Diversity Plus: hDFCGF Assay for Macrophage colony-stimulating factor (MCSF) Biomarker Activity (AID 2283060)
condition: primary human foreskin fibroblasts; actives raise or lower the signal
Protocol: BSK_hDFCGF is a cell-based, multiplexed-readout assay that uses foreskin fibroblast, a human skin primary cell, with measurements taken at 24 hours after chemical dosing in a 96-well plate.BSK_hDFCGF_MCSF is an assay component measured in the BSK_hDFCGF assay. It measures M-CSF antibody related to regulation of gene expression using ELISA technology.Data from the assay component BSK_hDFCGF_MCSF was analyzed into 1 assay endpoint. […]
The source made the active and inactive calls. The calls were made as follows: active = hit-call score of the fitted dose curve at least 0.9, where 1 is the maximum; inactive = score below 0.9.
quantity kind: AC50

Example cases with answers are listed next.
CCc1c(C(=O)NN2CCCCC2)nn(-c2ccc(Cl)cc2Cl)c1-c1ccc(Br)cc1
3.75 µM (active)
CCCCCCCCCCCCCCCC
inactive
CCOc1ccc2c(c1)C(C)=CC(C)(C)N2
6.14 µM (active)
Cc1oc(-c2ccccc2)nc1CCOc1cccc2c1ccn2CCC(=O)O
inactive
C=CCOC(=O)c1ccccc1C(=O)OCC=C
inactive
C[C@]12C=CC(=O)C=C1CC[C@@H]1[C@@H]2C(=O)C[C@@]2(C)[C@H]1CC[C@]2(O)C(=O)CO
inactive

Request: // lookup AC50 for CCCCc1ccc2c(n1)[C@@H](c1ccc(OC)cc1C[C@H](C)C(=O)O)[C@H](C(=O)O)[C@H]2c1ccc2c(c1)OCO2
Response: inactive

Request: // lookup AC50 for c1cc(-c2ccncc2)ccn1
Response: inactive

Request: // lookup AC50 for OC[C@@H](O)[C@@H](O)[C@H](O)[C@H](O)CO
Response: inactive

Request: // lookup AC50 for C[Si]1(C)O[Si](C)(C)O[Si](C)(C)O[Si](C)(C)O1
Response: inactive
